system: Tov-21-G; assay: Primary qHTS to identify gynecologic anti-cancer compounds using libraries of approved drugs and bioactive compounds (AID 1345084); conditions: Gynecologic cancer cell panel viability, ATPlite luminescence, 48 h; series mostly up to 57.5 µM; also: nearly all actives have a fitted effect of over 55% in size
Records with an inconclusive call do not appear. The source made the active and inactive calls. Calls follow the shape of the dose curve; as a rule, active = well fitted cell-killing curve with a large enough effect; inconclusive = small, poorly fitted or top-dose-only effect, or effect the other way; inactive = flat fitted curve, though single readings scatter.
Thanks in advance; please answer with one of these: active, inactive

stdin: Could you kindly confirm the outcome this assay logged for CC(=O)[O][Hg][c]1ccccc1 ?
stdout: active

stdin: Could you kindly confirm the outcome this assay logged for CCOC(=O)Nc1ccc(NCc2ccc(F)cc2)cc1N ?
stdout: inactive

stdin: Could you kindly confirm the outcome this assay logged for Cc1ccccc1-n1c(Cn2ncc3c(N)ncnc32)nc2cccc(C)c2c1=O ?
stdout: inactive

stdin: Could you kindly confirm the outcome this assay logged for O=C(NCC1CCOCC1)c1cnc(Nc2ccc(Cl)cc2Cl)nc1C(F)(F)F ?
stdout: inactive

stdin: Could you kindly confirm the outcome this assay logged for O=C(Oc1ccc([N+](=O)[O-])cc1)N1CCC(C(O)(c2ccc3c(c2)OCO3)c2ccc3c(c2)OCO3)CC1 ?
stdout: inactive

stdin: Could you kindly confirm the outcome this assay logged for Fc1cc(Br)ccc1CBr ?
stdout: inactive

stdin: Could you kindly confirm the outcome this assay logged for CC(N[C@H]1C[C@H]1c1ccccc1)c1ccc2c(c1)OCCO2 (stereo partly drawn) ?
stdout: inactive

stdin: Could you kindly confirm the outcome this assay logged for COCCOCCO ?
stdout: inactive

stdin: Could you kindly confirm the outcome this assay logged for COC(C)(C)CCCC(C)C/C=C/C(C)=C/C(=O)OC(C)C (stereo not drawn) ?
stdout: inactive

stdin: Could you kindly confirm the outcome this assay logged for CC(Cc1ccc(O)cc1)NCC(O)c1cc(O)cc(O)c1 (stereo not drawn) ?
stdout: inactive

stdin: Could you kindly confirm the outcome this assay logged for Nc1ccc(Cl)cc1 ?
stdout: inactive

stdin: Could you kindly confirm the outcome this assay logged for OCCCBr ?
stdout: inactive

stdin: Could you kindly confirm the outcome this assay logged for CC(C)(C)NC[C@H](O)c1ccc(O)cc1Cl ?
stdout: inactive

###

experiment: Immunotoxin (HA22) sensitization/mitigation study. Vehicle arm (PBS) (AID 1159510); conditions: cancer cells viability with PBS vehicle (HA22 study); series mostly up to 46.1 µM
Active and inactive are the calls of the source. The rule behind the calls is not given here.
Thanks in advance; please answer with one of these: active, inactive

stdin: Could you kindly confirm the outcome this assay logged for CC(C)Oc1cc(Nc2nc(N[C@@H](C)c3ccc(F)cn3)ncc2Cl)[nH]n1 ?
stdout: active

stdin: Could you kindly confirm the outcome this assay logged for CCC=CC[C@H]1C(=O)CC[C@@H]1CC(=O)OC ?
stdout: inactive

stdin: Could you kindly confirm the outcome this assay logged for CC(=O)c1c(C)c2cnc(Nc3ccc(N4CCNCC4)cn3)nc2n(C2CCCC2)c1=O ?
stdout: active

stdin: Could you kindly confirm the outcome this assay logged for CC(C)(C)c1cnc(CSc2cnc(NC(=O)C3CCNCC3)s2)o1 ?
stdout: active

stdin: Could you kindly confirm the outcome this assay logged for CCOc1cc(N2CCC(O)CC2)ccc1Nc1ncc2c(n1)N(C)c1ccccc1C(=O)N2C ?
stdout: active

stdin: Could you kindly confirm the outcome this assay logged for C[C@@H]1CCN(C(=O)CC#N)C[C@@H]1N(C)c1ncnc2[nH]ccc12 ?
stdout: inactive

stdin: Could you kindly confirm the outcome this assay logged for CCOc1cc2ncc(C#N)c(Nc3ccc(OCc4ccccn4)c(Cl)c3)c2cc1NC(=O)/C=C/CN(C)C ?
stdout: active

stdin: Could you kindly confirm the outcome this assay logged for CCOC(CN1C(=O)[C@](CC(=O)Nc2ccc(C)cc2)(NC(=O)Nc2ccc(C)cc2)c2ccccc21)OCC ?
stdout: active

stdin: Could you kindly confirm the outcome this assay logged for COc1cc2c(Oc3ccc4[nH]c(C)cc4c3F)ncnc2cc1OCCCN1CCCC1 ?
stdout: active

stdin: Could you kindly confirm the outcome this assay logged for CCN1CCN(CC(=O)Nc2ccc(-c3cccc4c(=O)cc(N5CCOCC5)oc34)c3sc4ccccc4c23)CC1 ?
stdout: active

stdin: Could you kindly confirm the outcome this assay logged for Nc1cc(C(F)(F)F)c(-c2cc(N3CCOCC3)nc(N3CCOCC3)n2)cn1 ?
stdout: active

stdin: Could you kindly confirm the outcome this assay logged for CCc1cc(-c2n[nH]c(C)c2-c2ccc3c(c2)OCCO3)c(O)cc1O ?
stdout: active

stdin: Could you kindly confirm the outcome this assay logged for Cn1c(Nc2ccc(C(F)(F)F)cc2)nc2cc(Oc3ccnc(-c4ncc(C(F)(F)F)[nH]4)c3)ccc21 ?
stdout: active

stdin: Could you kindly confirm the outcome this assay logged for CCn1c(-c2nonc2N)nc2c(C#CC(C)(C)O)ncc(OC[C@H]3CCCNC3)c21 ?
stdout: active

stdin: Could you kindly confirm the outcome this assay logged for COc1cc(=C2C=c3ccccc3=N2)[nH]c1=Cc1[nH]c(C)cc1C ?
stdout: active

stdin: Could you kindly confirm the outcome this assay logged for C=CCn1c(=O)c2cnc(Nc3ccc(N4CCN(C)CC4)cc3)nc2n1-c1cccc(C(C)(C)O)n1 ?
stdout: active

stdin: Could you kindly confirm the outcome this assay logged for Cn1cc(-c2[nH]c3cc(NC(=O)[C@H](N)C4CCCCC4)cc4c3c2C=NNC4=O)cn1 ?
stdout: active

stdin: Could you kindly confirm the outcome this assay logged for COc1cc(C)c(Sc2cnc(NC(=O)c3ccc(CNC(C)C(C)(C)C)cc3)s2)cc1C(=O)N1CCN(C(C)=O)CC1 (centres undefined) ?
stdout: active

stdin: Could you kindly confirm the outcome this assay logged for OCCC#Cc1nc(-c2ccc(F)cc2)c(-c2ccncc2)n1CCCc1ccccc1 ?
stdout: active

###

Assay: Cell Viability - LYMP2-014 (AID 983);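 also: cells exposed to compound for 24 h at 37 °C; nearly all actives have a fitted effect of over 50% in size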
Conditions: LYMP2-014 lymphoblastoid cells, viability qHTS; series mostly up to 92.2 µM
Source text: NIH Chemical Genomics Center [NCGC] NIH Molecular Libraries Screening Centers Network [MLSCN] National Institutes of Environmental Health Sciences [NIEHS] National Toxicology Program [NTP] We have developed a 1536-well cell-based assay for quantitative high throughput screening (qHTS) against a number of cell lines to determine in vitro cytotoxicity of small molecules. […] 8. Detection; Luminescence; Viewlux plate reader […]
Inconclusive results are not listed. Calls of active or inactive are those of the source. The call rests on the fitted dose curve; in most records, active means well fitted cell-killing curve with a large enough effect; inconclusive means small, poorly fitted or top-dose-only effect; inactive means flat fitted curve, though single readings scatter.
Thanks in advance; please answer with one of these: label 1 for active, label 0 for inactive

stdin: Could you kindly confirm the outcome this assay logged for CC(=O)[O][Hg][c]1ccccc1 ?
stdout: label 1

stdin: Could you kindly confirm the outcome this assay logged for OCCCBr ?
stdout: label 0

stdin: Could you kindly confirm the outcome this assay logged for CCOP(=O)(NC(C)C)Oc1ccc(SC)c(C)c1 (stereo not given) ?
stdout: label 0

stdin: Could you kindly confirm the outcome this assay logged for CCOCCOC(C)=O ?
stdout: label 0

stdin: Could you kindly confirm the outcome this assay logged for O=[N+]([O-])c1c2ccccc2cc2ccccc12 ?
stdout: label 0

stdin: Could you kindly confirm the outcome this assay logged for O=C(O)COc1ccccc1 ?
stdout: label 0

stdin: Could you kindly confirm the outcome this assay logged for CCCCOC(=O)c1ccccc1C(=O)OCc1ccccc1 ?
stdout: label 0

stdin: Could you kindly confirm the outcome this assay logged for COC(C)(C)CCCC(C)C/C=C/C(C)=C/C(=O)OC(C)C (stereo not given) ?
stdout: label 0

stdin: Could you kindly confirm the outcome this assay logged for CN(C)NC(=O)CCC(=O)O ?
stdout: label 0

stdin: Could you kindly confirm the outcome this assay logged for Cc1cc(O)ccc1Cl ?
stdout: label 0

###

assay: qHTS for differential inhibitors of proliferation of Plasmodium falciparum line 7G8 (AID 1815); details: Plasmodium falciparum 7G8 proliferation inhibition; series mostly up to 28.7 µM;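 also: parasite growth measured after three days of incubation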; also: potency is read from the fitted curve at half-maximal effect
Results filed as inconclusive are left out. The source made the active and inactive calls. Calls follow the shape of the dose curve; as a rule, active = well fitted curve in the direction sought with a large enough effect; inconclusive = small, poorly fitted or top-dose-only effect, or another doubt; inactive = no such curve, though single readings can be large or run the other way.
Metric: Potency

Please review the entries below; each comes with its answer.
>  <Compound>
NCc1cc(=O)[nH]o1

>  <Potency>
inactive

$$$$
>  <Compound>
O=C1CCCN1CC#CCN1CCCC1

>  <Potency>
inactive

$$$$
>  <Compound>
CNCCc1c[nH]c2ccc(O)cc12

>  <Potency>
inactive

$$$$
>  <Compound>
CN[C@@H](C)[C@H](O)c1ccccc1

>  <Potency>
12.6 µM (active)

$$$$
>  <Compound>
Cn1cnc(CCN)c1

>  <Potency>
inactive

$$$$
>  <Compound>
CC[C@H](CO)Nc1nc(NCc2ccccc2)c2ncn(C(C)C)c2n1

>  <Potency>
5.01 µM (active)

$$$$
>  <Compound>
C=CCN1CC[C@]23CCCCC2[C@H]1Cc1ccc(O)cc13 (stereo partly drawn)

>  <Potency>
11.2 µM (active)

$$$$

Moving on to another compound below.
Data point: NCCc1c[nH]c2ccc(O)cc12 ; Potency = inactive

###

biological target: DNA repair nuclease/redox regulator APEX1 (Homo sapiens) (UniProt P27695); assay: qHTS Validation Assay for Inhibitors of the Human Apurinic/apyrimidinic Endonuclease 1 (APE1) (AID 1705); details: purified APE1 endonuclease activity, fluorescence, titration; series mostly up to 57.1 µM
Sequence (P27695 whole entry, looked up): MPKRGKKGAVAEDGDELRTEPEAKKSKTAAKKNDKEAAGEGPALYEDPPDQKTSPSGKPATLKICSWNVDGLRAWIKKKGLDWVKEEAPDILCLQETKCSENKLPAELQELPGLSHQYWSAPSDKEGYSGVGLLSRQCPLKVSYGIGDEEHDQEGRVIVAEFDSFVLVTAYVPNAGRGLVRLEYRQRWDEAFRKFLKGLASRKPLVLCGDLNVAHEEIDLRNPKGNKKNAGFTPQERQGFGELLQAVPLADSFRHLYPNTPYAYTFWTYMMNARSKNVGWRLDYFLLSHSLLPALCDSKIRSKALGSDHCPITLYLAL
Results filed as inconclusive are left out. Calls of active or inactive are those of the source. The call rests on the fitted dose curve; in most records, active means well fitted inhibition curve with a large enough effect; inconclusive means small, poorly fitted or top-dose-only effect; inactive means flat fitted curve, though single readings scatter.
Thanks in advance; please answer with one of these: YES = active, NO = inactive

stdin: Could you kindly confirm the outcome this assay logged for CS(=N)(=O)CC[C@H](N)C(=O)O (stereo not given in full) ?
stdout: NO

stdin: Could you kindly confirm the outcome this assay logged for O=C(Cc1ccc(Cl)c(Cl)c1)N1CCCCC1CN1CCCC1 (stereo not given) ?
stdout: NO

stdin: Could you kindly confirm the outcome this assay logged for CNCCc1ccc(O)c(O)c1 ?
stdout: NO

stdin: Could you kindly confirm the outcome this assay logged for NC1CCc2cc(O)c(O)cc2C1 (stereo not given) ?
stdout: NO

stdin: Could you kindly confirm the outcome this assay logged for O=C(O)Cc1cnc[nH]1 ?
stdout: NO

stdin: Could you kindly confirm the outcome this assay logged for CC1=NN=C(c2ccc(N)cc2)c2cc3c(cc2C1)OCO3 ?
stdout: NO

stdin: Could you kindly confirm the outcome this assay logged for CNCCc1c[nH]c2ccc(O)cc12 ?
stdout: NO

stdin: Could you kindly confirm the outcome this assay logged for CC(=O)NCCc1c[nH]c2ccccc12 ?
stdout: NO

stdin: Could you kindly confirm the outcome this assay logged for S=C(NC1CCCCC1)N1CCC(c2cnc[nH]2)CC1 ?
stdout: NO

stdin: Could you kindly confirm the outcome this assay logged for CC(C)NC(C)Cc1ccc(I)cc1 (stereo not given) ?
stdout: YES

stdin: Could you kindly confirm the outcome this assay logged for CCCN(CCC)[C@@H]1CCc2ccc(O)cc2C1 ?
stdout: NO

stdin: Could you kindly confirm the outcome this assay logged for C[C@@H]1O[C@H](C[N+](C)(C)C)C[C@H]1O ?
stdout: NO

stdin: Could you kindly confirm the outcome this assay logged for Cc1c(C(=O)c2cccc3ccccc23)c2cccc3c2n1[C@H](CN1CCOCC1)CO3 ?
stdout: NO

stdin: Could you kindly confirm the outcome this assay logged for c1ccc2sc(C3(N4CCCCC4)CCCCC3)cc2c1 ?
stdout: NO

stdin: Could you kindly confirm the outcome this assay logged for C[N+](C)(C)CC(=O)O ?
stdout: NO

stdin: Could you kindly confirm the outcome this assay logged for CCCN1CCC[C@H](c2cccc(O)c2)C1 ?
stdout: NO

stdin: Could you kindly confirm the outcome this assay logged for CCCN1CCO[C@@H]2c3cc(O)ccc3OC[C@H]21 ?
stdout: NO

stdin: Could you kindly confirm the outcome this assay logged for CC[C@@]1(O)C(=O)OCc2c1cc1n(c2=O)Cc2cc3ccccc3nc2-1 ?
stdout: NO

stdin: Could you kindly confirm the outcome this assay logged for CN[C@@H](C)[C@H](O)c1ccccc1 ?
stdout: NO

stdin: Could you kindly confirm the outcome this assay logged for O=C(O)[C@@H]1CCN1 ?
stdout: NO

stdin: Could you kindly confirm the outcome this assay logged for C#CCOC(=O)C1=CCCN(C)C1 ?
stdout: NO

stdin: Could you kindly confirm the outcome this assay logged for O=C(O)CC[N+](=O)[O-] ?
stdout: NO

stdin: Could you kindly confirm the outcome this assay logged for CCCN(CCC)C1CCc2ccc(O)cc2C1 (stereo not given) ?
stdout: NO

stdin: Could you kindly confirm the outcome this assay logged for C[C@]12N[C@H](Cc3ccccc31)c1ccccc12 ?
stdout: NO

stdin: Could you kindly confirm the outcome this assay logged for Clc1ccc(C(c2ccc(Cl)cc2)n2cc[n+](CC(OCc3ccc(Cl)cc3Cl)c3ccc(Cl)cc3Cl)c2)cc1 (stereo not given) ?
stdout: NO
